# Test system: AGS
# test.name: 72-h MTT cytotoxicity assay, AGS
# Assay type: cell-based
# measurement.conditions: Homo sapiens, 72 h, Gastric adenocarcinoma, Table 2, read-out: Anti-proliferative activity, 72-h MTT IC50
recorded.endpoint: IC50
A complete answer gives the number and then names the unit.

1) CN(c1ccc(F)cc1)S(=O)(=O)c1cc([N+](=O)[O-])c(Cl)s1: 5000 nM
2) O=[N+]([O-])c1cc(S(=O)(=O)Nc2ccc(C(F)(F)F)cc2)sc1Cl: 2200 nM
3) O=[N+]([O-])c1cc(S(=O)(=O)Nc2ccc(Cl)cc2)sc1Cl: 1200 nM

// moving on: another record for IC50
Req: What IC50 value was documented for this molecule, O=[N+]([O-])c1cc(S(=O)(=O)Nc2ccc(F)cc2)sc1Cl ?
Resp: 1700 nM
